Hi there, I'd appreciate the recorded Percent Effect for every entry that follows.
# System: Wolbachia pipientis
# test_summary: Anti-Wolbachia Cell-Based Screen
# Type: functional
# Set-up: scale not given: in the data most compounds retested in dose-response had high values
# measurement_conditions: 5 µM
Hit rate of the full screen: of about 48,000 compounds, about 13,000 (27%) showed an effect of 50% or more. The list shows a part of the results.
Give bare numbers, in %.

Recorded Percent Effect, per entry:
INSERT INTO measurements (molecule, measured_parameter, value) VALUES
  ('CN1CCN(S(=O)(=O)c2ccc3c(c2)CN(C(=O)C(C)(C)C)CC3)CC1', 'Percent Effect', -9.365),
  ('Nc1cc(C(=O)NCC2CCN(Cc3cccc(O)c3)C2)ccn1 (stereo not drawn)', 'Percent Effect', -106.2),
  ('O=C(CC1CCN(c2cccnn2)CC1)NC1CCOCC1', 'Percent Effect', 83.52),
  ('O=C(CN1CCCC1Cn1cccn1)NC1CCOCC1 (stereo not drawn)', 'Percent Effect', -8.305),
  ('Cc1nn2c(N3CCC(O)CC3)cc(-c3ccccc3)nc2c1C', 'Percent Effect', 1.799),
  ('Cc1nnc(CN2CCN(CCOc3ccccc3C#N)CC2)n1C', 'Percent Effect', -3.944),
  ('O=C(c1ccc[nH]1)N1CCc2c(cccc2S(=O)(=O)N2CCOCC2)C1', 'Percent Effect', 94.62),
  ('COc1ccnc(N(C)Cc2ccco2)n1', 'Percent Effect', 6.13);

Respectfully, I request Percent Effect for each entry included below.
1. CC(C)CC(=O)N1CCc2ccc(S(=O)(=O)N3CCN(C)CC3)cc2C1
2. O=C1COc2ccc(S(=O)(=O)N3CCOCC3)c3c2N1CCC3
3. CCn1ncnc1CN1CCC(CNC(=O)c2cccc(C)n2)C1 (stereo not drawn)
4. COCc1nc(C2CC2)nn1-c1cccc(F)c1

0.4144
16.87
95.93
-12.44

Below are 5 molecules. Give each one its Percent Effect.
1. CCS(=O)(=O)c1ccc2c(c1)OCCO2
2. CCC[C@@H]1CN(Cc2ccc3c(c2)OCCO3)C[C@H]1C(=O)O
3. O=C(O)c1cc(-n2cc3c(n2)CCC3)cc(S(=O)(=O)N2CCOCC2)c1
4. COc1ccc(CCNC(=O)NCC(O)c2cccc(F)c2)cc1 (stereo not drawn)
5. CCN(CC)S(=O)(=O)N(C)Cc1ccc2c(c1)OCCO2

-1.362
-6.164
-7.127
127.5
104.5

Hi, could you look up Percent Effect for each item in my list?
1. CC(C)N(C)S(=O)(=O)N(C)Cc1ccc2c(c1)OCCO2
2. Cc1cc(C)n(C2CCCN(C(=O)c3cccc4[nH]ncc34)C2)n1 (stereo not drawn)
3. CCn1ncnc1CN1CCC(CNC(=O)c2cccc(C)c2)C1 (stereo not drawn)

[98.7, 4.56, 94.27]

Please state, for each entry, its recorded Percent Effect.
1. Cc1ccsc1C(=O)N1CCC(c2nccn2Cc2ccncc2)CC1
2. CN(Cc1ccncc1)C1CC2(CCN(C(=O)c3ccnnc3)CC2)C1
3. Cc1nsc(NC(=O)N2CCN(Cc3ccccc3F)C(=O)C2)n1
4. Cc1cc(CN2CCC(CNC(=O)c3nccc4ccccc34)C2)[nH]n1 (stereo not drawn)
5. CCCNC(=O)N1CCc2ccc(S(=O)(=O)N3CCCC3)cc2C1
6. CN(C)CCNC(=O)CC1CCN(c2cccnn2)CC1

1: -26.92; 2: 2.338; 3: -10.42; 4: 5.129; 5: -4.985; 6: 87.97

For every item below, please supply its Percent Effect.
1. CN(c1ccncn1)C1CC2(CCN(C(=O)c3cccn3C)C2)C1 (stereo not drawn)
2. O=C(c1ccc[nH]1)N1CCc2cc(S(=O)(=O)N3CCOCC3)ccc2C1
3. Cc1noc(C)c1CN1CC2(CCN(C(=O)c3cccn3C)C2)CC1=O (stereo not drawn)

1: 100.1; 2: 106.5; 3: -4.057

Answer for every listed entry: what is its Percent Effect? The entries follow.
1. COCc1ccccc1C(=O)N1CCCC(n2nc(C)cc2C)C1 (stereo not drawn)
2. CC(OCC1CC1)C(=O)N1CCCN(c2cccnn2)CC1 (stereo not drawn)
3. O=C(c1ccc[nH]1)N1CCc2ccc(S(=O)(=O)N3CCOCC3)cc2C1
4. CCn1ccnc1CN1CCC(CNC(=O)c2ccc(C)nc2)C1 (stereo not drawn)
5. Cn1cccc1C(=O)N1CCCC2(CCCN2Cc2cccnc2)C1 (stereo not drawn)
6. CCCNC(=O)N1CCc2ccc(S(=O)(=O)N3CCOCC3)cc2C1
7. CCS(=O)(=O)c1ccc2c(c1)OCCCO2

[4.248, -4.711, 99.23, -5.867, 0.2442, -14.34, -4.006]

// for each molecule below, give its Percent Effect
1. Cc1ccc(N2CCCC3(CCN(C(=O)c4sccc4C)C3)C2)nn1 (stereo not drawn)
2. CN(c1ccncn1)C1CC2(CCN(C(=O)CCc3cccs3)C2)C1 (stereo not drawn)
3. CC(C)N(C)S(=O)(=O)N(C)Cc1cnn(C)c1

1: -21.87; 2: -6.442; 3: -10.04

State recorded Percent Effect for all listed molecules.
1. Cc1noc(NC(=O)c2ccc(Br)s2)n1
2. O=C(CC1CCN(c2cccnn2)CC1)NCCO
3. O=C(c1ccccc1N1CCOCC1)N1CCCC(n2cccn2)C1 (stereo not drawn)
4. O=C(CCc1cccs1)NCC1CCCN1c1cccnn1 (stereo not drawn)

[1.553, 94.51, -2.451, -0.2437]

----------
# Tested on: Wolbachia pipientis
# test_summary: Anti-Wolbachia Cell-Based Screen
# Format: functional
# Set-up: scale not given: in the data most compounds retested in dose-response had high values
# measurement_conditions: 5 µM
Screen size: about 48,000 compounds; about 13,000 (27%) showed an effect of 50% or more. Some of the results follow.
measured_parameter: Percent Effect (%)
One number for each entry, in %.

Solved entries (count: 4):
INSERT INTO results (molecule, measured_parameter, value) VALUES
  ('O=C(O)C(F)(F)F.O=S(=O)(C1CC1)N1CCC2(CC1)CN(Cc1nccs1)CCO2', 'Percent Effect', 4.912),
  ('O=C1CC2(CCN(c3nccc(-c4cc(C(=O)O)ccn4)n3)CC2)CN1', 'Percent Effect', 4.533),
  ('Cc1cc(C)nc(CN(C)C(=O)C(c2cccnc2)N2CCCC2)c1 (stereo not given)', 'Percent Effect', 24.45),
  ('CC(C)c1ncc2c(n1)CN(Cc1cccc(C#N)c1)CC2', 'Percent Effect', -1.681);

// input: 5 molecules below; output: Percent Effect for each
1. Cn1cc(N2CCC(Nc3ccc4nccnc4n3)C2=O)cn1 (stereo not given)
2. O=C(NC1CC1)N1CC[C@H]2[C@H]1CCN2c1nncs1.O=C(O)C(F)(F)F
3. CN(C)Cc1cnc2n1CCN(C(=O)Cc1ccc(F)cc1)CC2.O=C(O)C(F)(F)F
4. CC(C)N(C)Cc1cnc2n1CCN(Cc1ccc(F)cc1)C2.O=C(O)C(F)(F)F.O=C(O)C(F)(F)F
5. O=C(NCc1cnc2n1CCN(Cc1nccs1)C2)c1ccno1.O=C(O)C(F)(F)F

-8.237
6.883
-6.028
108.1
-12.49

Return reported Percent Effect; argument: Cc1cnc(N2CCC3(CCN(CC4CCCC4)C3=O)CC2)nc1.O=C(O)C(F)(F)F
94.42

----------
# Test system: Wolbachia pipientis
# test_summary: Anti-Wolbachia Cell-Based Screen
# Type: functional
# Set-up: scale not given: in the data most compounds retested in dose-response had high values
# measurement_conditions: 5 µM
Screen size: about 48,000 compounds; about 13,000 (27%) showed an effect of 50% or more. This is one part of the list.
measured_parameter: Percent Effect (%)
Numbers only, in %.

INSERT INTO results (molecule_smiles, value) VALUES
  ('O=C(O)C(F)(F)F.O=C(O)[C@]12CCCN(Cc3ccsc3)C[C@H]1CN(c1ncccn1)C2', 0.06928),
  ('Cc1cccc(CN2C[C@@H](CN3CCCN(C)CC3)[C@@H](CO)C2)n1', 16.72);

Answer for every listed entry: what is its Percent Effect? The entries follow.
1. N#Cc1cc2n(n1)CCN(C(=O)CCc1c[nH]c3ccccc13)C2
2. CN1C(=O)C2(CCN(S(C)(=O)=O)CC2)c2cc(F)ccc21.Cl

1: -21.25; 2: -38.1

What value of Percent Effect has been recorded for this entry: Cl.Cl.O[C@@H]1C[C@@](CNCc2cccc(Cl)c2)(COc2cccnc2)C[C@@H]1O
-8.733

----------
# Test system: Wolbachia pipientis
# test_summary: Anti-Wolbachia Cell-Based Screen
# Assay type: functional
# Set-up: scale not given: in the data most compounds retested in dose-response had high values
# measurement_conditions: 5 µM
Screen size: about 48,000 compounds; about 13,000 (27%) showed an effect of 50% or more. The list shows a part of the results.
Field: Percent Effect. Provide a value for each of the compounds that follow.
One number for each entry, in %.

See these solved cases before continuing.
INSERT INTO results (molecule_smiles, experimental_target, value) VALUES
  ('CCc1nc(C)c([C@H]2CN(C)C[C@@H]2C(=O)Nc2ccccc2F)[nH]1', 'Wolbachia pipientis', -8.421),
  ('COc1ccc(-n2nc(C(C)C)nc2Cn2cncn2)cc1', 'Wolbachia pipientis', 2.008),
  ('CCc1nc(CCNc2ncccn2)sc1C', 'Wolbachia pipientis', -26.63),
  ('FC(F)(F)CCN(Cc1ccon1)C1CCCC1', 'Wolbachia pipientis', 5.052),
  ('CCN(CC)CCn1cc(NC(=O)Nc2ccccc2OC)cn1', 'Wolbachia pipientis', 2.741);

Okay, now this compound:
Data request, read-out Percent Effect, for O=C(Nc1cc(Cl)ccc1N1CCCCC1)c1ccccn1
-5.482
